Test system: WA09 human embryonic stem (hES) cells
Assay: PLS-DA prediction of teratogenicity from secretome of treated hES cells (Example 9)
Conditions: DevTox pharmaceutical, high dose (H = 10x circulating dose)
attribute measured: % Ter (PLS-DA class probability teratogen)
Lab note: jot down the number only; don't add units.

Worked examples follow.
[
  {
    "compound": "O=C1NS(=O)(=O)c2ccccc21 [Saccharin]",
    "test value": 0.2
  },
  {
    "compound": "CC1(C)S[C@@H]2[C@H](NC(=O)Cc3ccccc3)C(=O)N2[C@H]1C(=O)O [PenicillinG]",
    "test value": 0.43
  },
  {
    "compound": "CC1=C(/C=C/C(C)=C/C=C/C(C)=C/C(=O)O)C(C)(C)CCC1 [RetinoicAcid]",
    "test value": 0.7
  },
  {
    "compound": "Cc1ncc(C[n+]2csc(CCO)c2C)c(N)n1 [Thiamine]",
    "test value": 0.22
  }
]

Lab note: next compound to report on.
query: Report measured % Ter (PLS-DA class probability teratogen) on WA09 human embryonic stem (hES) cells; entry: CS(=O)(=O)OCCCCOS(C)(=O)=O [Busulfan]
result: 0.72

* * *

Tested on: WA09 human embryonic stem (hES) cells
Test: PLS-DA prediction of teratogenicity from secretome of treated hES cells (Example 9)
Settings: DevTox pharmaceutical, high dose (H = 10x circulating dose)
attribute measured: Confidence (difference between class probabilities)
Lab note: jot down the number only; don't add units.

[
  {
    "molecule": "CC1=C(/C=C/C(C)=C/C=C/C(C)=C\\C(=O)O)C(C)(C)CCC1 [Accutane]",
    "experimental system": "WA09 human embryonic stem (hES) cells",
    "test value": 0.4
  },
  {
    "molecule": "O=C1CCC(N2C(=O)c3ccccc3C2=O)C(=O)N1 (stereo not drawn) [Thalidomide]",
    "experimental system": "WA09 human embryonic stem (hES) cells",
    "test value": 0.4
  }
]

query: Identify measured Confidence (difference between class probabilities) corresponding to CC1=C(/C=C/C(C)=C/C=C/C(C)=C/C(=O)O)C(C)(C)CCC1 [RetinoicAcid]
result: 0.4

* * *

Listed here are compounds together with their documented % Ter (PLS-DA class probability teratogen).
Test system: WA09 human embryonic stem (hES) cells
Assay: PLS-DA prediction of teratogenicity from secretome of treated hES cells (Example 9)
Conditions: DevTox pharmaceutical, high dose (H = 10x circulating dose)
Lab note: jot down the number only; don't add units.

Worked examples follow.
[
  {
    "compound": "CCCC(CCC)C(=O)O [VPA]",
    "test value": 0.66
  },
  {
    "compound": "CO[C@H]1/C=C/O[C@@]2(C)Oc3c(C)c(O)c4c(O)c(c(/C=N/N5CCN(C)CC5)c(O)c4c3C2=O)NC(=O)/C(C)=C\\C=C\\[C@H](C)[C@H](O)[C@@H](C)[C@@H](O)[C@@H](C)[C@H](OC(C)=O)[C@@H]1C [Rifampicin]",
    "test value": 0.73
  },
  {
    "compound": "O=C1CCC(N2C(=O)c3ccccc3C2=O)C(=O)N1 (stereo not drawn) [Thalidomide]",
    "test value": 0.7
  },
  {
    "compound": "N[C@@H](Cc1cc(I)c(Oc2cc(I)c(O)c(I)c2)c(I)c1)C(=O)O [Levothyroxine]",
    "test value": 0.41
  },
  {
    "compound": "O=C1O[C@H]([C@@H](O)CO)C(O)=C1O [Ascorbic Acid]",
    "test value": 0.43
  }
]

Lab note: next compound to report on.
query: Report measured % Ter (PLS-DA class probability teratogen) on WA09 human embryonic stem (hES) cells; entry: Nc1nc2ncc(CNc3ccc(C(=O)N[C@@H](CCC(=O)O)C(=O)O)cc3)nc2c(=O)[nH]1 [Folic Acid]
result: 0.41
